Where do these numbers come from? They come from paper PMC4831050.

test: In vitro cytotoxicity, sulforhodamine B; assay type: cell-based; conditions: human
Quantity kind: IC50 at 72 h (µg/mL)
# value in µg/mL; strip the unit string

Q: // returns reported IC50 at 72 h for input `CC(C)c1cc2c(c(O)c1O)[C@@]1(C)CCCC(C)(C)C1=C(O)C2=O`
Ans: 4.4

----------
experiment: In vitro cytotoxicity, sulforhodamine B; assay type: cell-based; conditions: human, HT-29 colorectal carcinoma cells
Quantity kind: IC50 at 72 h (µg/mL)
# value in µg/mL; strip the unit string

As a guide, the following entries are already answered.
- Compound: "COCC(=O)[C@H]1C(C)(C)CCC[C@]1(C)C1=C(O)C(=O)C(C(C)C)=CC1=O [Compound 2]"
  IC50 at 72 h [µg/mL]: 1.6
- Compound: "CC(C)C1=CC2=CC(=O)[C@H]3C(C)(C)CCC[C@]3(C)C2=C(O)C1=O [Compound 10, taxodione]"
  IC50 at 72 h [µg/mL]: 0.8
- Compound: "CC(C)c1cc2c(cc1O)[C@@]1(C)CCCC(C)(C)[C@@H]1[C@@H](O)C2=O [Compound 14, 6α-hydroxysugiol]"
  IC50 at 72 h [µg/mL]: 11.4

We next turn to a different compound, shown below.
Q: // returns reported IC50 at 72 h for input CC(C)c1cc2c(cc1O)[C@@]1(C)CCCC(C)(C)[C@@H]1CC2 [Compound 12, ferruginol]
Ans: 11.3
